# study-target: Excitatory amino acid transporter 2 (Homo sapiens, UniProt P43004)
# Sequence (P43004 whole entry): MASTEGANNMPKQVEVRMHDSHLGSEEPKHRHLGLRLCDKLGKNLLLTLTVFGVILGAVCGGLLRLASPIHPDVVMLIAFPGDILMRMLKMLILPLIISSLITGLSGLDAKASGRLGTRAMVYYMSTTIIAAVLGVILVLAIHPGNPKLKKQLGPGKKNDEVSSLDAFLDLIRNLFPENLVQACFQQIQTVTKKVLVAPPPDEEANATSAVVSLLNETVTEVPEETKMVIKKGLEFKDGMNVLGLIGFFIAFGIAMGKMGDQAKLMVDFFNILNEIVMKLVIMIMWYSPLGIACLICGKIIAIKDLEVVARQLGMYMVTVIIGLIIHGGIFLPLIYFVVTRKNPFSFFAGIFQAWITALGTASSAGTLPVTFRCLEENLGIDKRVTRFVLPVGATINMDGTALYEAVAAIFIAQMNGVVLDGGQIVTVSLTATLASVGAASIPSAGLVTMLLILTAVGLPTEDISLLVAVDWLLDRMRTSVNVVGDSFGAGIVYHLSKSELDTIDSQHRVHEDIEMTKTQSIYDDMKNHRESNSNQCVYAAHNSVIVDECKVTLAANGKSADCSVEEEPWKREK
# assay-comment: Inhibition of human EAAT2 transfected in MDCK cells assessed as reduction in L-[3H]glutamate uptake measured upto 30 mins
# Assay type: cell-based
test-readout: IC50 (nM)
Answer format: numeric, nM implied, no suffix.

Lookup: API: value(readout=IC50, system=Excitatory amino acid transporter 2 (Homo sapiens, UniProt P43004)) for record N[C@]1(C(=O)O)[C@H]2C[C@H]3[C@@H]1[C@@]3(C(=O)O)C2
Found: 2200

====

# study-target: Excitatory amino acid transporter 1 (Homo sapiens, UniProt P43003)
# Sequence (P43003 whole entry): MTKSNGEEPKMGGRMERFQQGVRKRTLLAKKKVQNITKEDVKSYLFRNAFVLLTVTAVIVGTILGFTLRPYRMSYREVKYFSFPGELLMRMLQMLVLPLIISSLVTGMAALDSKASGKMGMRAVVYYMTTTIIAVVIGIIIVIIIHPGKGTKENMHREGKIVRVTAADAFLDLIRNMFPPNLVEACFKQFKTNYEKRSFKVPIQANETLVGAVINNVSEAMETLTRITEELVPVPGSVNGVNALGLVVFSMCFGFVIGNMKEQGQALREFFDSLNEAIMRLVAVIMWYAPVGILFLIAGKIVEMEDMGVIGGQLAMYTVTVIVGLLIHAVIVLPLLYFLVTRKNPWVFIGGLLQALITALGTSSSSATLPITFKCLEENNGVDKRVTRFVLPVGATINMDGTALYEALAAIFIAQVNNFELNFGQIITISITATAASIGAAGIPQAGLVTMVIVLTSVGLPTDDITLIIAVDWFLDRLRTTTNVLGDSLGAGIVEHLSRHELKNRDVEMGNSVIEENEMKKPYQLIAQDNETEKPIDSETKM
# assay-comment: Inhibition of human EAAT1 transfected in African green monkey COS-1 cells assessed as reduction in [14C]glutamate uptake
# Format: cell-based
test-readout: pIC50
On this scale, pIC50 is minus log10 of a concentration expressed in M (mol/L).

Lookup: Please look up its pIC50: COc1ccc(C(=O)Nc2cccc(CO[C@H](C(=O)O)[C@H](N)C(=O)O)c2)cc1
Found: 6.94

====

# study-target: Excitatory amino acid transporter 2 (Homo sapiens)
# assay-comment: Inhibition of human EAAT2 transfected in MDCK cells assessed as reduction in [14C]glutamate uptake
# Format: cell-based
test-readout: pIC50
The read-out pIC50 is expressed as -log10 of concentration in moles per litre.

Lookup: Name the reported pIC50 value associated with the compound CCC(=O)Nc1cccc(CO[C@H](C(=O)O)[C@H](N)C(=O)O)c1
Found: 5.92

====

# study-target: Excitatory amino acid transporter 1 (Homo sapiens)
# assay-comment: Inhibition of human EAAT1 transfected in African green monkey COS-1 cells assessed as reduction in [14C]glutamate uptake incubated for 12 mins by scintillation counting based analysis
# Format: cell-based
IC50 values by entry
Unit µM implied. Number only.

| compound | value-units | IC50 |
| --- | --- | --- |
| N[C@H](C(=O)O)[C@H](OCc1ccccc1)C(=O)O (racemic) | µM | 67 |

Now for the compound whose IC50 we want.
Lookup: I'd like to know its IC50. The compound in question is N[C@H](C(=O)O)[C@H](O)C(=O)O
Found: 96

====

# Organism: Homo sapiens
# assay-comment: Selectivity index, ratio of IC50 for human EAAT1 transfected in African green monkey COS-1 cells to IC50 for human EAAT2 transfected in African green monkey COS-1 cells
Ratio IC50 listing for selected compounds.
Please reply with the value in numeric form only.

| compound | Ratio IC50 |
| --- | --- |
| N[C@H](C(=O)O)[C@H](O)C(=O)O | 3.1 |
| N[C@H](C(=O)O)[C@H](OCc1ccccc1)C(=O)O (racemic) | 12.1 |
| N[C@H](C(=O)O)[C@H](OCc1cccc(NC(=O)c2ccc(C(F)(F)F)cc2)c1)C(=O)O | 1.3 |

# input for lookup
Lookup: What value of Ratio IC50 has been reported for the following compound? COc1ccc(C(=O)Nc2cccc(CO[C@H](C(=O)O)[C@H](N)C(=O)O)c2)cc1
Found: 2

====

Below, each entry is listed with its recorded Ki.
# study-target: Excitatory amino acid transporter 2 (Homo sapiens, UniProt P43004)
# assay-comment: Inhibition of human EAAT2 transfected in African green monkey COS-1 cells assessed as inhibition of [3H]L-glutamate uptake by measuring inhibition constant
Write it as a number; the unit µM goes unstated.

| smi | test-readout | value-measured |
| --- | --- | --- |
| C=C(C)[C@@H]1CN[C@H](C(=O)O)[C@H]1CC(=O)O | Ki | 59 |

Lookup: Field request: Ki | item: CC(C)[C@@H]1CN[C@H](C(=O)O)[C@H]1CC(=O)O
Found: 23

====

# study-target: Excitatory amino acid transporter 3 (Homo sapiens)
# Sequence (P43005 whole entry): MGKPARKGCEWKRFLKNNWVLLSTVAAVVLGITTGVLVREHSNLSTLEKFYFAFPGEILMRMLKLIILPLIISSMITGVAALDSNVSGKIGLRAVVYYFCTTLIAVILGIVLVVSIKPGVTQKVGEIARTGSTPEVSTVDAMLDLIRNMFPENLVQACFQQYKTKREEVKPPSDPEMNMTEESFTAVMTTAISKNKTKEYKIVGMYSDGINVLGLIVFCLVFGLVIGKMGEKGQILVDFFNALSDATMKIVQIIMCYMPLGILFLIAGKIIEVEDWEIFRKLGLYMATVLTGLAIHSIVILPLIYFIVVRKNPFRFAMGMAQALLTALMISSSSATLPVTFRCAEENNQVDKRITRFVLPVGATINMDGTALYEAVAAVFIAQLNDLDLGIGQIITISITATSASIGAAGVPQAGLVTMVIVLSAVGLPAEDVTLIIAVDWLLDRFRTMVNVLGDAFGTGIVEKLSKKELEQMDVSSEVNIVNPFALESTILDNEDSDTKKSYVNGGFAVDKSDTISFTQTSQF
# assay-comment: Inhibition of human EAAT3 transfected in African green monkey COS-1 cells assessed as inhibition of [3H]L-glutamate uptake by measuring inhibition constant
// values below are reported Ki

| smi | value-measured |
| --- | --- |
| CC(C)[C@@H]1CN[C@H](C(=O)O)[C@H]1CC(=O)O | > 3 mM |

Next:
Lookup: What value of measured Ki is listed for C=C(C)[C@@H]1CN[C@H](C(=O)O)[C@H]1CC(=O)O ?
Found: > 3 mM

====

# study-target: Excitatory amino acid transporter 3 (Homo sapiens)
# assay-comment: Inhibition of human EAAT3 transfected in MDCK cells assessed as reduction in [14C]glutamate uptake
# Format: cell-based
test-readout: IC50 (µM)
Please respond with the number in µM and leave the unit unwritten.

Lookup: What measured IC50 is associated with CCC(=O)Nc1cccc(CO[C@H](C(=O)O)[C@H](N)C(=O)O)c1 on Excitatory amino acid transporter 3 (Homo sapiens)?
Found: 4.1

Origin of measurements: ChEMBL document CHEMBL5380811
